# subject of test: T1, Cav3.1 (Homo sapiens, UniProt O43497)
# T1 construct: expressed in transfected cells; host or cells: HEK-293, stably transfected
# procedure summary: Whole-cell patch clamp of Cav3.1 dependent LVA calcium current in HEK-293/Cav3.1 cells transiently transfected with γ subunits (Example 1)
# Assay type: cell-based
# settings: Table 2
measure: Time to peak @ −20 mV

γ6S: rat calcium channel γ6 subunit, short isoform (AF361344), SEQ ID NO:49 (protein, listed as Rattus norvegicus) MMWSNFFMQEEDRRRTAVGRRRAQEQQNLGLTPEREGKIKLGLLVAIVGATLAVLAVGTEFWVELNTYKTNGSAVCEAAHLGLWKVCIKRLWQADVPAGRETCGPAELPGEANCTYFKFFTTGENAHIFQRTTKKGLLLFVSLEVFRHSVRALLQGVNPETPPAPRLAYEYSWSLGCGVGAGLILLLGGVCFLLLTLPSWPWRSLCPKRGGPTA
6.4 ± 0.5 (n = 3) ms
γ4: rat calcium channel γ4 subunit (AF361341), SEQ ID NO:47 (protein, listed as Rattus norvegicus) MVRCDRGLQMLLTTAGAFAAFSLMAIAIGTDYWLYSSAHICNGTNLTMDDGPPPRRARGDLTHSGLWRVCCIEGIYKGHCFRINHFPEDNDYDHDSSEYLLRIVRASSVFPILSTILLLLGGLCIGAGRIYSRKNNIVLSAGILFVAAGLSNIIGIIVYISSNTGDPSDKRDEDKKNHYNYGWSFYFGALSFIVAETVGVLAVNIYIEKNKELRFKTKREFLKASSSSPYSRMPSYRYRRRRSRSSSRSTEASPSRDASPVGLKITGAIPMGELSMYTLSREPLKVTTAASYSPDQDAGFLQMHDFFQQDLKEGFHVSMLNRRTTPV
5.2 ± 0.5 (n = 9) ms

Switching to the query record.
**Query** Quick one: Time to peak @ −20 mV for γ6L: rat calcium channel γ6 subunit, long isoform (AF361343), SEQ ID NO:48 (protein, listed as Rattus norvegicus) MMWSNFFMQEEDRRRTAVGRRRAQEQQNLGLTPEREGKIKLGLLVAIVGATLAVLAVGTEFWVELNTYKTNGSAVCEAAHLGLWKVCIKRLWQADVPAGRETCGPAELPGEANCTYFKFFTTGENAHIFQRTTKKEVNLAAAVIAVLGLTAMALGCLCVIMVLSKGAEFLLRLGAVCFGLSGLLLFVSLEVFRHSVRALLQGVNPETPPAPRLAYEYSWSLGCGVGAGLILLLGGVCFLLLTLPSWPWRSLCPKRGGPTA ?
**Result** 6.0 ± 0.8 (n = 5) ms
